molecular target: CT-L activity of purified 20S proteasome (Homo sapiens, UniProt P20618+P28074); test: in vitro CT-L activity of purified 20S proteasome; format: biochemical; details: Table 1; read-out: IC50 (μM) Chymotrypsin-like activity
Measurement Type: IC50 (µM)

>>> endpoint_result("CC(C)N(Cc1nc(-c2ccccc2)no1)C(=O)COc1ccc(C(F)(F)F)cc1 [11b]")
0.43
>>> endpoint_result("CCCCc1ccc(OCC(=O)N(Cc2nc(-c3cnccn3)no2)C(C)C)cc1 [11an]")
0.107
>>> endpoint_result("CC(C)N(Cc1nc(-c2ccc(Cl)cc2)no1)C(=O)COc1ccc(C(F)(F)F)cc1 [11d]")
0.857

P. CC(C)N(Cc1nc(-c2cccnc2)no1)C(=O)COc1ccc(C(C)(C)C)cc1 [11aj]
Q. CC(C)N(Cc1nc(-c2cccnc2)no1)C(=O)COc1ccc(O)cc1 [11u]
In: Compare P and Q and name the one whose reported IC50 is smaller. Your answer should be the label of the entry you select.
Out: Q

----------
target: CT-L activity of purified 20S proteasome (Homo sapiens, UniProt P20618+P28074); experiment: in vitro CT-L activity of purified 20S proteasome; type: biochemical; details: read-out: IC50, in vitro CT-L
Below, each entry is listed alongside its reported IC50.

>>> endpoint_result("CC(C)N(Cc1nc(-c2ccccc2)no1)C(=O)COc1ccc(Cl)cc1 [11h]")
"300 to 500 nM"
>>> endpoint_result("Cc1ccc(OCC(=O)N(Cc2nc(-c3ccc(C(F)(F)F)cc3)no2)C(C)C)cc1 [11n]")
"~1000 nM"
>>> endpoint_result("CC(C)N(Cc1nc(-c2ccccc2)no1)C(=O)COc1ccc(C(F)(F)F)cc1 [11b]")
"300 to 500 nM"
>>> endpoint_result("CCc1ccc(OCC(=O)N(Cc2nc(-c3cccnc3)no2)C(C)C)cc1 [11ab]")
"99 nM"
>>> endpoint_result("Cc1ccc(OCC(=O)N(Cc2nc(-c3ccc(Cl)cc3)no2)C(C)C)cc1 [11i]")
"~1000 nM"

In: Give the measured IC50 of Cc1ccc(OCC(=O)N(Cc2nc(-c3ccccc3)no2)C(C)C)cc1 [11m] .
Out: 300 to 500 nM

In: Let us now turn to Cc1ccc(-c2noc(CN(C(=O)COc3ccc(Cl)cc3)C(C)C)n2)cc1 [11e]
Out: ~1000 nM

In: Quick one: Cc1ccc(-c2noc(CN(C(=O)COc3ccc(C(F)(F)F)cc3)C(C)C)n2)cc1 [11a]
Out: ~1000 nM

----------
target: CT-L activity of purified 20S proteasome (Homo sapiens, UniProt P20618+P28074); test: in vitro CT-L activity of purified 20S proteasome; assay type: biochemical; conditions: read-out: IC50, in vitro CT-L
Measurement Type: IC50 (nM)

>>> endpoint_result("Cc1ccc(OCC(=O)N(Cc2nc(-c3ccc(C)cc3)no2)C(C)C)cc1")
650

a. Cc1ccc(OCC(=O)N(Cc2nc(-c3cccnc3)no2)C(C)C)cc1 [11x]
b. Cc1ccc(OCC(=O)N(Cc2nc(-c3ccncc3)no2)C(C)C)cc1 [11y]
In: Response body: label of entry with the larger IC50; valid values a , b . # reply format: chosen label
Out: b
